Measured values drawn from patent US9981960B2 for this set.

target: Human MC1R (Homo sapiens, UniProt Q01726); construct: endogenous in cells; assay: MCR agonist measurement (cAMP measurement), human MC1R agonist activity in human melanoma cell line HBL; conditions: HBL cells, 37° C. for 30 minutes, intracellular cAMP by fluorescence method
Sequence (Q01726 whole entry): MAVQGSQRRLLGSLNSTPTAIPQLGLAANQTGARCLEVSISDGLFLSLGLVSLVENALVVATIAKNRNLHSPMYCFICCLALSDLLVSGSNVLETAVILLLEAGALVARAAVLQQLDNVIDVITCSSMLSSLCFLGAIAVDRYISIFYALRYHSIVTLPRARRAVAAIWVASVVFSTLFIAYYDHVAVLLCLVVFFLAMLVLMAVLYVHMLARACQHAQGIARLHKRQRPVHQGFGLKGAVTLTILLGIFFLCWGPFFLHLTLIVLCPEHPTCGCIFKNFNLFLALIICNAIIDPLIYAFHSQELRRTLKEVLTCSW
assayReadout: EC50 (µM)

Reference set, count: 4
compound	measuredTarget	assayReadout	observedMeasurement
COC[C@@H]1C[C@@H](c2ccc(C(F)(F)F)cc2N2CCC(C(=O)O)CC2)CN1C(=O)[C@]1(F)CN(c2ccnc(C)c2)C[C@H]1c1ccc(OC)cc1	Human MC1R (Homo sapiens, UniProt Q01726)	EC50	0.00094
COc1ccc([C@@H]2CN(C(C)(C)C)C[C@@]2(F)C(=O)N2CCC(c3ccc(Cl)cc3N3CCC(C(=O)O)CC3)CC2)cc1	Human MC1R (Homo sapiens, UniProt Q01726)	EC50	0.04
COc1ccc([C@@H]2CN(C(C)(C)C)C[C@@]2(F)C(=O)N2CC(c3ccc(C(F)(F)F)cc3N3CCC(C(=O)O)CC3)C2)cc1	Human MC1R (Homo sapiens, UniProt Q01726)	EC50	0.04
COc1ccc([C@@H]2CN(C(C)(C)C)C[C@@]2(F)C(=O)N2CCC(c3ccc(C(F)(F)F)cc3OCCCc3nnn[nH]3)CC2)cc1.Cl [Example 280, hydrochloride]	Human MC1R (Homo sapiens, UniProt Q01726)	EC50	0.042

1 = COC[C@@H]1C[C@@H](c2ccc(C(F)(F)F)cc2N(C)CCCC(=O)O)CN1C(=O)[C@]1(F)CN([C@H]2CC[C@H](OC)CC2)C[C@H]1c1ccc(OC)cc1
2 = COc1ccc([C@@H]2CN([C@H]3CC[C@H](OC)CC3)C[C@@]2(F)C(=O)N2CC[C@@H](c3ccc(C(F)(F)F)cc3N3CCC(C(=O)O)CC3)C2)cc1
3 = COC[C@H]1CN(C(=O)[C@]2(F)CN(C3CCCC3)C[C@H]2c2ccc(OC)cc2)C[C@@H]1c1cc(F)c(F)cc1N1CCC(C(=O)O)CC1
4 = COc1ccc([C@@H]2CN(C(C)(C)C)C[C@@]2(F)C(=O)N2CCC(c3ccc(C(F)(F)F)cc3-c3nc(C(=O)O)co3)CC2)cc1
5 = COc1ccc([C@@H]2CN(C3CCCC3)C[C@@]2(F)C(=O)N2CC(c3ccc(C(F)(F)F)cc3N3CCC(C(=O)O)CC3)C(F)(F)C2)cc1 (single isomer, unassigned) [Example 294]
List items by EC50 in falling order. # answer = labels listed in requested order
5, 4, 3, 1, 2
(5: 0.804 µM, 4: 0.067 µM, 3: 0.031 µM, 1: 0.011 µM, 2: 0.00089 µM)

a = CCC(=O)N1CCC(N2C[C@@H](c3ccc(OC)cc3)[C@](F)(C(=O)N3C[C@H](COC)[C@@H](c4ccc(C(F)(F)F)cc4N4CCC(C(=O)O)CC4)C3)C2)CC1
b = COC[C@H]1CN(C(=O)[C@]2(F)CN(c3ccnc(C)c3)C[C@H]2c2ccc(OC)cc2)C[C@@H]1c1ccc(C(F)(F)F)cc1N1CCC(C(=O)O)CC1
Param pair: a , b . Output: the one whose EC50 is numerically greater. Selection: enter the item's label.
a
(a: 0.023 µM, b: 0.0012 µM)
